- Test system: osteoclast precursors
- METHOD_DESCRIPTION: Osteoclast tartrate-resistant acid phosphatase assay
- Type: cell-based
- CONDITIONS: Osteoclast, 7-14 days, RANKL and M-CSF
pIC50: −log10 of the molar value.
MEASUREMENT_TYPE: pIC50

Guide cases for pIC50, answers given:
MOLECULE	pIC50
CCN1CCN(C(=O)Nc2ccc(Oc3ccnc(-c4cn(C)cn4)c3)cn2)C1=O [Example 82]	7.00 to 8.00
Cn1cc(-c2cc(Oc3ccc(NC(=O)N4CCN(C5CCOC(C)(C)C5)C4=O)nc3)ccn2)cn1 (stereo not drawn) [Example 13]	7.00 to 8.00
CCN1CCN(C(=O)Nc2ccc(Oc3ccnc(-c4cnc(C)s4)c3)cn2)C1=O [Example 69]	7.00 to 8.00
Cc1ncc(-c2cc(Oc3ccc(NC(=O)N4CCN(C5CCOCC5)C4=O)nc3)ccn2)s1 [Example 60]	7.00 to 8.00
CCN1CCN(C(=O)Nc2ccc(Oc3ccnc(-c4cnn(C)c4)c3)c(C)n2)C1=O [Example 42]	> 8.00

Asked: Read the entry COC[C@H](C)N1CCN(C(=O)Nc2ccc(Oc3ccnc(-c4cnn(C)c4)c3)cn2)C1=O [Example 16] and write its reported pIC50.
Given back: > 8.00

Data origin: patent US9133183B2
